TEST: GHS categories as the set defines them, by LD50: 1 up to 5, 2 up to 50, 3 up to 300, 4 up to 2000, 5 above 2000 mg/kg
TEST PARAMETERS: rat; in vivo; po
Description: […]The data set underlying the modeling effort for this project was initially compiled by NICEATM and U.S. EPA’s CCTE. Briefly, LD50 data were collected from rat acute oral systemic toxicity tests, including limit tests, ranges/confidence intervals, and discrete LD50 values. The full data set included 21,200 LD50 entries for 15,688 substances. […]

COMPOUND	GHS category
O=C(O)c1cc(O)[nH]c(=O)c1	5
COc1cc2c(s1)C(O)=C(C(=O)Nc1ccccn1)N(C)S2(=O)=O	3
CCOC(=O)COc1nn(-c2cccc(C(F)(F)F)c2)c2ncccc12	4
CCC(C)(C)c1ccc(OP(=O)(NC)OC)c(Cl)c1 (centres undefined)	3
COc1ccc(OC(=O)c2ccccc2OC(N)=O)cc1	5
CC1(C)Oc2cc(C(=O)c3ccc(Cl)cc3)ccc2NC1=O	5
NC(=O)Oc1ccccc1C(=O)Oc1ccccc1[N+](=O)[O-]	5
COCc1c(Cc2ccc(-c3ccccc3-c3nn[nH]n3)cc2)c(=O)nc2nc[nH]n12	4
CCC(C)(C)c1ccccc1	5
Nc1ccc([N+](=O)[O-])cc1O	5
CC(=O)C=CC=C(C)CCC=C(C)C	5
CCCCCCCCCCOC1OC(CO)C(O)C(O)C1O (centres undefined)	5
S=C(SSC(=S)N(Cc1ccccc1)Cc1ccccc1)N(Cc1ccccc1)Cc1ccccc1	5
COc1cc2c(cc1OC)C(c1ccccc1F)N(c1ccccc1)CC2 (centres undefined)	4
CN(SN(C)C(=O)Oc1ccc(C(C)(C)c2ccc(OC(=O)N(C)SN(C)C(=O)ON=C3CSCCS3)cc2)cc1)C(=O)ON=C1CSCCS1	4
N#CC1(N)CC1	4
O=c1[nH]cnc2c1ncn2[C@H]1CC[C@@H](CO)O1	5
Clc1cc(Cl)ncn1	3
O=C(CCl)Nc1nc2cc(Cl)ccc2o1	4
CC(C)c1cc(C(C)C)c([N+](=O)[O-])c(C(C)C)c1[N+](=O)[O-]	5
CCCC(=O)O[C@]1(C(=O)CCl)[C@@H](C)C[C@H]2[C@@H]3CCC4=CC(=O)C=C[C@]4(C)[C@@]3(F)C(=O)C[C@@]21C	5
Cc1ccc2oc(C=Cc3nc4cc(C)ccc4o3)nc2c1	5
CCOc1ccc(OC(=O)c2ccccc2OC(N)=O)cc1	5
Oc1ccc(C(O)CNCCCCCCNCC(O)c2ccc(O)c(O)c2)cc1O (centres undefined)	5

* * *

TEST: rat acute oral toxicity
TEST PARAMETERS: in vivo
QUANTITY NAME: LD50

MOLECULE	READOUT VALUE
CCOC(=O)C(C)Oc1ccc(Oc2nc3ccc(Cl)cc3o2)cc1 (stereo not given)	2360 mg/kg
O=CC=O	481 mg/kg
O=C(OC1CCCCC1)c1ccccc1O	3030 mg/kg
CCCCCCC=O	3200 mg/kg
O=C1CCC(=O)O1	1510 mg/kg
COC(=O)N(C(=O)N1CO[C@@]2(C(=O)OC)Cc3cc(Cl)ccc3C2=N1)c1ccc(OC(F)(F)F)cc1	268 mg/kg
CN(C)C	460 mg/kg
CCOC(=O)CC(O)(CC(=O)OCC)C(=O)OCC	5900 mg/kg
CC(=O)CC(C)(C)O	2520 mg/kg
NC(=O)c1ccccc1Cl	1250 mg/kg
COc1ccc(C(c2ccc(OC)cc2)C(Cl)(Cl)Cl)cc1	1860 mg/kg
Cc1ccccc1S(N)(=O)=O	2400 mg/kg
ClC(Cl)(Cl)c1ccccc1	1590 mg/kg
CCOP(c1ccccc1)c1ccccc1	316 mg/kg
O=S(=O)(O)c1cc(Nc2nc(Nc3ccccc3)nc(N(CCO)CCO)n2)ccc1/C=C/c1ccc(Nc2nc(Nc3ccccc3)nc(N(CCO)CCO)n2)cc1S(=O)(=O)O	12100 mg/kg

* * *

TEST: GHS categories as the set defines them, by LD50: 1 up to 5, 2 up to 50, 3 up to 300, 4 up to 2000, 5 above 2000 mg/kg
TEST PARAMETERS: rat; in vivo; po
QUANTITY NAME: GHS category

COMPOUND	READOUT VALUE
CC=COC	5
CC1(C)S[C@@H]2[C@H](NC(=O)C(c3ccccc3)S(=O)(=O)O)C(=O)N2[C@H]1C(=O)O (some centres not stated)	5
COC(OC)N(C)C	5
C=C(C#N)C(=O)OCCOC	5
CC(C)(c1cc(Br)c(OCC(Br)CBr)c(Br)c1)c1cc(Br)c(OCC(Br)CBr)c(Br)c1 (configuration not stated)	5
CCOC(=O)/C=C(C)/C=C/CC(C)CCCC(C)C (configuration not stated)	5
CCC[C@@H]1C[C@@H](C(=O)N[C@@H]([C@H]2O[C@H](SC)[C@H](O)[C@@H](O)[C@H]2O)[C@@H](C)O)N(C)C1	5
C=CC(=O)OCCCOc1ccc(C(=O)Oc2ccc(OC(=O)c3ccc(OCCCOC(=O)C=C)cc3)c(C)c2)cc1	5
CC(C)=CCC(C#N)(CCN(C)C)Cc1cccc2ccccc12 (configuration not stated)	4
CS/C(C)=N/O	4
CS(=O)(=O)c1ccc(C(=O)C2C(=O)CCCC2=O)c([N+](=O)[O-])c1	5
O=S(=O)(CCO)CS(=O)(=O)CCO	5

* * *

TEST: GHS categories as the set defines them, by LD50: 1 up to 5, 2 up to 50, 3 up to 300, 4 up to 2000, 5 above 2000 mg/kg
TEST PARAMETERS: rat; in vivo; po
# Lookup of reported GHS category keyed by entry

MOLECULE	GHS category
CC/C=C\CCOC(C)=O	5
CC(C)(c1cc(Br)c(O)c(Br)c1)c1cc(Br)c(O)c(Br)c1	5
O=S(=O)(O)OC1C(OS(=O)(=O)O)C(OS(=O)(=O)O)C(OS(=O)(=O)O)C(OS(=O)(=O)O)C1OS(=O)(=O)O (stereo unspecified)	5
CN1CCN(C2=NS(=O)(=O)c3cc(Cl)ccc3N2)CC1	5
CCCOC(=O)c1sc(C(=O)OCCC)c(O)c1O	4
CCCc1c(Cc2ccc(-c3ccccc3-c3nn[nH]n3)cc2)c(NCCN2CCOCC2)nc2ncnn12	4
CC(C)C1=CC23CCC4C(C)(C(=O)N5CCOCC5)CCCC4(C)C2CC1C1C(=O)OC(=O)C13 (stereo unspecified)	5
CCOC[C@H]1CO[C@@](Cn2cncn2)(c2cc3ccccc3o2)O1	4
O=C1NC(=O)c2ccccc21	5
CCN(C)CCC(C#N)(CC=C(C)C)c1cccc2ccccc12 (stereo unspecified)	4
CC(=O)Nc1ncc([N+](=O)[O-])s1	4

* * *

# Lookup of reported GHS category keyed by entry
TEST: GHS categories as the set defines them, by LD50: 1 up to 5, 2 up to 50, 3 up to 300, 4 up to 2000, 5 above 2000 mg/kg
TEST PARAMETERS: rat; in vivo; po

COMPOUND	GHS category
Clc1ccc(CN2CCN=C2c2ccccc2)cc1	4
C[Si](C)(C)C	5
Cc1ccc(OC(N)=O)c(C(=O)Oc2ccccc2)c1	5
CN1C(=O)C(C)(C)Oc2cc(C(=O)c3ccc(Cl)cc3)ccc21	5
CCOC(=O)c1ccccc1OC(N)=O	5
O=[N+]([O-])c1ccc(C(O)C(CO)N=Cc2ccc(N(CCCl)CCCl)cc2)cc1 (configuration not stated)	5
CCCCOC(=O)c1ccc(C(=O)OCCCC)cc1	5
Cc1cc2nc3c(=O)[nH]c(=O)nc-3n(C[C@H](O)[C@H](O)[C@H](O)CO)c2cc1C	5
CCCCOC(=O)c1ccccc1N	5
Cc1cccc(N(C)C(=S)Oc2ccc3c(c2)C2CCC3C2)c1 (configuration not stated)	4
Clc1cc(Cl)c2oc(C3(Cn4cncn4)OCCCO3)cc2c1	4
c1ccc(C2CCCCC2)cc1	5

* * *

# Lookup of reported GHS category keyed by entry
TEST: GHS categories as the set defines them, by LD50: 1 up to 5, 2 up to 50, 3 up to 300, 4 up to 2000, 5 above 2000 mg/kg
TEST PARAMETERS: rat; in vivo; po
Source text: […]The data set underlying the modeling effort for this project was initially compiled by NICEATM and U.S. EPA’s CCTE. Briefly, LD50 data were collected from rat acute oral systemic toxicity tests, including limit tests, ranges/confidence intervals, and discrete LD50 values. The full data set included 21,200 LD50 entries for 15,688 substances. […]

COMPOUND SMILES	GHS category
CCCCCCCCCCCCCCCC(=O)OC1=C(C(=O)Nc2ccccn2)N(C)S(=O)(=O)c2ccsc21	2
CC(C)OP(O)(=S)OC(C)C	4
CCCCCCCCC=COCC	5
COc1ccccc1C(=O)NS(=O)(=O)c1ccc(C(=O)NC2CC2)cc1	5
Cn1cc(C(=O)Cl)c(C(F)F)n1	5
CCCCC1=NC2(CCCC2)C(=O)N1Cc1ccc(-c2ccccc2C#N)cc1	5
